Form field: area under the viability curve (AUC), normalized (one value per entry).
# Test system: NCC20
# measurement.description: Cell viability drug screen, 12-point dose-response AUC
# Assay type: cell-based, human
# reported.conditions: NCC20 cells; 72 hours; 12-point dose-response
I only need the number, thanks.

Consider the following illustrative entries.
chemical.smiles: C/C(=C\c1csc(C)n1)[C@@H]1C[C@@H]2O[C@@H]2CCC[C@H](C)[C@H](O)[C@@H](C)C(=O)C(C)(C)[C@@H](O)CC(=O)O1
study.target: NCC20
recorded.value: −0.5459

chemical.smiles: CC(C)C[C@H](NC(=O)[C@H](Cc1ccccc1)NC(=O)c1cnccn1)B(O)O
study.target: NCC20
recorded.value: −0.1078

chemical.smiles: Cc1ccc(C(=O)N(CCCN)[C@@H](c2oc3cc(Cl)ccc3c(=O)c2Cc2ccccc2)C(C)C)cc1
study.target: NCC20
recorded.value: −1.288

Next:
Name the reported area under the viability curve (AUC), normalized value associated with the compound `COC(=O)Nc1nc2ccc(Sc3ccccc3)cc2[nH]1` −0.5211

* * *

Form field: Average Area Under the Viability Curve (AUC), AUC norm value (one value per entry).
# System: SNU601
# measurement.description: Cell viability drug screen, 12-point dose-response AUC
# Format: cell-based, human
# reported.conditions: SNU601 cells; 72 hours
Where a name gives a salt, the structure may show the parent alone.

Consider the following illustrative entries.
molecule: Cn1c(=O)n(-c2ccc(C(C)(C)C#N)cc2)c2c3cc(-c4cnc5ccccc5c4)ccc3ncc21
recorded.value: 2.66
--
molecule: c1ccc2c(-c3cnn4cc(-c5ccc(N6CCNCC6)cc5)cnc34)ccnc2c1
recorded.value: 3.699

Give Average Area Under the Viability Curve (AUC), AUC norm value (SNU601) of the following molecule: `CCC[C@H](NC(=O)/C(C#N)=C/c1cccc(Br)n1)c1ccccc1` 3.24

Give Average Area Under the Viability Curve (AUC), AUC norm value (SNU601) of the following molecule: `O=C(/C=C/c1cccnc1)NCCCCC1CCN(C(=O)c2ccccc2)CC1` 4.976

Give Average Area Under the Viability Curve (AUC), AUC norm value (SNU601) of the following molecule: Cc1ccc(C(=O)N(CCCN)[C@@H](c2nc3cc(Cl)ccc3c(=O)n2Cc2ccccc2)C(C)C)cc1 [Ispinesib (SB-715992), Ispinesib] −1.371

Give Average Area Under the Viability Curve (AUC), AUC norm value (SNU601) of the following molecule: COC1=CC(c2cc3ccccc3[nH]2)=N/C1=C\c1[nH]c(C)cc1C [Obatoclax mesylate (GX15-070), Obatoclax mesylate] 2.791

Give Average Area Under the Viability Curve (AUC), AUC norm value (SNU601) of the following molecule: `CC[C@]1(O)C[C@H]2CN(CCc3c([nH]c4ccccc34)[C@@](C(=O)OC)(c3cc4c(cc3OC)N(C=O)[C@H]3[C@@](O)(C(=O)OC)[C@H](OC(C)=O)[C@]5(CC)C=CCN6CC[C@]43[C@@H]65)C2)C1` 0.9381

* * *

# Tested on: SNU601
# measurement.description: Cell viability drug screen, 12-point dose-response AUC
# Format: cell-based, human
# reported.conditions: SNU601 cells; 72 hours
Where a name gives a salt, the structure may show the parent alone.
reported.endpoint: Average Area Under the Viability Curve (AUC), AUC norm value
I only need the number, thanks.

Consider the following illustrative entries.
compound: CC[C@@]1(O)C(=O)OCc2c1cc1n(c2=O)Cc2cc3ccccc3nc2-1
study.target: SNU601
recorded.value: −1.853
--
compound: C/C=C(\C)C(=O)N[C@@H](c1ccccc1)[C@@H](O)C(=O)O[C@H]1C[C@@]2(O)[C@@H](OC(=O)c3ccccc3)[C@@H]3[C@]4(OC(C)=O)CO[C@@H]4C[C@H](O)[C@@]3(C)C(=O)[C@H](OC(C)=O)C(=C1C)C2(C)C
study.target: SNU601
recorded.value: 0.2225

Next:
Give Average Area Under the Viability Curve (AUC), AUC norm value (SNU601) of the following compound: COc1cccc2c1C(=O)c1c(O)c3c(c(O)c1C2=O)C[C@@](O)(C(C)=O)C[C@@H]3O[C@H]1C[C@H](N)[C@H](O)[C@H](C)O1 [Daunorubicin HCl (Daunomycin HCl), Daunorubicin HCl] 1.207
